- tested.on: Cytochrome P450 2C9 (Homo sapiens) (UniProt P11712)
- Sequence (P11712 whole entry, looked up): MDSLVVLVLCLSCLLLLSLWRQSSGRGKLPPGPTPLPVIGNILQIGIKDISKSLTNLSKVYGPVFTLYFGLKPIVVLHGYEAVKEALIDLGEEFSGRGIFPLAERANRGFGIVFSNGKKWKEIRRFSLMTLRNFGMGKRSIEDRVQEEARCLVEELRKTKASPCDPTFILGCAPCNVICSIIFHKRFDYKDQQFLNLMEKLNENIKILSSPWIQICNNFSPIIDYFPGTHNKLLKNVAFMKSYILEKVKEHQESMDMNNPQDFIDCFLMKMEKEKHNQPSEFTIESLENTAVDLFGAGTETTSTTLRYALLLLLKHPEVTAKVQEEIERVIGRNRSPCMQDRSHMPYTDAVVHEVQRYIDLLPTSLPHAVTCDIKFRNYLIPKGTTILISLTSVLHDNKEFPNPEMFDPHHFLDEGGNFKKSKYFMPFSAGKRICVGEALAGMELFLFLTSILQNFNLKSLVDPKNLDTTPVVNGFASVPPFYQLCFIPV
- experiment: blockers of cytochrome P450 2C9 activity – biochemical, luminescence, ADME assay, primary screen (AID 777)
- setup.conditions: CYP2C9 Supersomes, luciferin-H conversion, at 5 µM, hits give high values
Screen size: about 96,000 compounds; about 19,000 (20%) were called active. A selection follows.
Rule: inhibition under 40% gives not met, otherwise met.

INSERT INTO results (compound, tested_on, assigned_category) VALUES
  ('Cc1ccc(NC(=S)NCCN2CCOCC2)cc1', 'Cytochrome P450 2C9 (Homo sapiens) (UniProt P11712)', 'not met'),
  ('CCOc1ccccc1NC(=O)Nc1cc(OC)ccc1OC', 'Cytochrome P450 2C9 (Homo sapiens) (UniProt P11712)', 'not met'),
  ('CCOC(=O)CC1C(=O)NCCN1C(=O)COc1ccc(Br)cc1C (stereo unspecified)', 'Cytochrome P450 2C9 (Homo sapiens) (UniProt P11712)', 'not met'),
  ('CCOc1ccccc1Oc1cn[nH]c1-c1ccc(OC)cc1O', 'Cytochrome P450 2C9 (Homo sapiens) (UniProt P11712)', 'met'),
  ('COc1ccc(-c2cc3nc(C)c(CCC(=O)NC(C)CCc4ccco4)c(C)n3n2)c(OC)c1 (stereo unspecified)', 'Cytochrome P450 2C9 (Homo sapiens) (UniProt P11712)', 'not met');

For the next question, use this compound.
stdin: I'd appreciate it if you could say whether COc1ccc(S(=O)(=O)N2CCCCC2)cc1Br has inhibition at least equal to 40%.
stdout: not met
